Source: ChEMBL document CHEMBL5625225

system: Stimulator of interferon genes protein (Homo sapiens), Q86WV6 [G230A,R293Q]; details: filed as agonist
Sequence (Q86WV6 whole entry G230A/R293Q): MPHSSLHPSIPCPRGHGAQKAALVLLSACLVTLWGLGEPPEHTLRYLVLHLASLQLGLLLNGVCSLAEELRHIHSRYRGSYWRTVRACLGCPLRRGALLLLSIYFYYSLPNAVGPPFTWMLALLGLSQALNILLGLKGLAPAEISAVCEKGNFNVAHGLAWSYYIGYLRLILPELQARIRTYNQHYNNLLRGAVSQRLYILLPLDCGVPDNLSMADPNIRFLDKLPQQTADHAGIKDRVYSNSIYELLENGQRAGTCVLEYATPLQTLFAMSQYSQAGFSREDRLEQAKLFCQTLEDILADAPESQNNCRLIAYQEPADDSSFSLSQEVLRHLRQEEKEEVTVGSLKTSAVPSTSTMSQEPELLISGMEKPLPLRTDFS
Description: Binding affinity to STING G230A/R293Q mutant (unknown origin) assessed as change in melting temperature by differential scanning fluorimetry analysis

# molecule, ΔTm [°C]
records = [
    ("Nc1nc2c(ncn2[C@H]2C[C@@H]3OP(=O)(O)OC[C@H]4O[C@@H](n5cnc6c(N)ncnc65)C[C@@H]4OP(=O)(O)/C=C/[C@H]3O2)c(=O)[nH]1", 8.6),
    ("Nc1nc2c(ncn2[C@@H]2O[C@@H]3/C=C/P(=O)(O)O[C@H]4[C@@H](F)[C@H](n5cnc6c(=O)[nH]c(N)nc65)O[C@@H]4COP(=O)(O)O[C@H]3[C@H]2F)c(=O)[nH]1", 8.8),
    ("Nc1ncnc2c1ncn2[C@@H]1O[C@@H]2/C=C/P(=O)(O)O[C@H]3C[C@H](n4cnc5c(N)ncnc54)O[C@@H]3COP(=O)(O)O[C@H]2[C@H]1F", 8.9),
]

====

Recorded half-life at 5 µM for the following compounds
test: Stability in human plasma assessed as half life at 5 uM measured upto 120 mins by UPLC/MS analysis; type: ADME, cell-free

# compound, half-life at 5 µM
data = [
    ("CC1(C(=O)OCOP2(=O)/C=C/[C@H]3O[C@@H](n4cnc5c(N)ncnc54)[C@H](F)[C@@H]3OP(=O)(OCOC(=O)C3(C)CCCCC3)OC[C@H]3O[C@@H](n4cnc5c(N)ncnc54)[C@H](F)[C@@H]3O2)CCCCC1 (stereo in doubt; 14C)", "2.17 h"),
    ("CCCCCCCC(=O)OCOP1(=O)/C=C/[C@H]2O[C@@H](n3cnc4c(N)ncnc43)[C@H](F)[C@@H]2OP(=O)(OCOC(=O)CCCCCCC)OC[C@H]2O[C@@H](n3cnc4c(N)ncnc43)[C@H](F)[C@@H]2O1 (stereo in doubt; 15C)", "0.317 h"),
    ("CC(C)(C)C(=O)OCOP1(=O)/C=C/[C@H]2O[C@@H](n3cnc4c(N)ncnc43)[C@H](F)[C@@H]2OP(=O)(OCOC(=O)C(C)(C)C)OC[C@H]2O[C@@H](n3cnc4c(N)ncnc43)[C@H](F)[C@@H]2O1 (stereo in doubt; 11C)", "0.817 h"),
    ("CCC(C)(C)C(=O)OCOP1(=O)/C=C/[C@H]2O[C@@H](n3cnc4c(N)ncnc43)[C@H](F)[C@@H]2OP(=O)(OCOC(=O)C(C)(C)CC)OC[C@H]2O[C@@H](n3cnc4c(N)ncnc43)[C@H](F)[C@@H]2O1 (stereo in doubt; 13C)", "1.43 h"),
]

====

Recorded pEC50 for the following compounds
molecular target: Stimulator of interferon genes protein (Homo sapiens, UniProt Q86WV6); test: Agonist activity at STING R232 mutant (unknown origin) expressed in digitonin -permeabilized HEK293T cells preincubated for 30 mins followed by washout and measured after 5 hrs by Bright-glo luciferase assay; format: cell-based
Sequence (Q86WV6 whole entry, looked up, stated change not applied): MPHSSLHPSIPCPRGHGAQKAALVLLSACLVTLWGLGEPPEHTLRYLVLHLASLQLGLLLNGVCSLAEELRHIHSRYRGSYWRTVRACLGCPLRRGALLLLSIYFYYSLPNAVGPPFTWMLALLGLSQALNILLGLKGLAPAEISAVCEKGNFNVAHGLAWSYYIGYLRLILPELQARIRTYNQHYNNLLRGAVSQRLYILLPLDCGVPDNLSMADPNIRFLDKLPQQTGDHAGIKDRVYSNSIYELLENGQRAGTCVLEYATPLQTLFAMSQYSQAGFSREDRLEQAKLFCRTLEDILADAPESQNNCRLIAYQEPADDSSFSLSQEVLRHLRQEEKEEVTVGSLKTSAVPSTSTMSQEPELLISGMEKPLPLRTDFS
pEC50: −log10 of the molar value.
measurement_kind: pEC50

# molecule, target, measurement_kind, data_value
data = [
    ("Nc1ncnc2c1ncn2[C@@H]1O[C@@H]2COP(=O)(O)O[C@H]3C[C@H](n4cnc5c(N)ncnc54)O[C@@H]3/C=C/P(=O)(O)O[C@H]2[C@H]1F", "Stimulator of interferon genes protein (Homo sapiens, UniProt Q86WV6)", "pEC50", 6.12),
    ("Nc1ncnc2c1ncn2[C@@H]1O[C@@H]2/C=C\\P(=O)(O)O[C@H]3[C@@H](F)[C@H](n4cnc5c(N)ncnc54)O[C@@H]3COP(=O)(O)O[C@H]2[C@H]1F", "Stimulator of interferon genes protein (Homo sapiens, UniProt Q86WV6)", "pEC50", 7.52),
    ("Nc1ncnc2c1ncn2[C@@H]1O[C@@H]2/C=C/P(=O)(O)O[C@H]3C[C@H](n4cnc5c(N)ncnc54)O[C@@H]3COP(=O)(O)O[C@H]2[C@H]1F", "Stimulator of interferon genes protein (Homo sapiens, UniProt Q86WV6)", "pEC50", 6.55),
    ("Nc1nc2c(ncn2[C@H]2C[C@@H]3OP(=O)(O)/C=C/[C@H]4O[C@@H](n5cnc6c(N)ncnc65)C[C@@H]4OP(=O)(O)OC[C@H]3O2)c(=O)[nH]1", "Stimulator of interferon genes protein (Homo sapiens, UniProt Q86WV6)", "pEC50", 4.97),
    ("Nc1nc2c(ncn2[C@H]2C[C@@H]3OP(=O)(O)OC[C@H]4O[C@@H](n5cnc6c(N)ncnc65)C[C@@H]4OP(=O)(O)/C=C/[C@H]3O2)c(=O)[nH]1", "Stimulator of interferon genes protein (Homo sapiens, UniProt Q86WV6)", "pEC50", 6.11),
    ("Nc1nc2c(ncn2[C@@H]2O[C@@H]3/C=C/P(=O)(O)O[C@H]4[C@@H](F)[C@H](n5cnc6c(=O)[nH]c(N)nc65)O[C@@H]4COP(=O)(O)O[C@H]3[C@H]2F)c(=O)[nH]1", "Stimulator of interferon genes protein (Homo sapiens, UniProt Q86WV6)", "pEC50", 6.30),
    ("Nc1nc2c(ncn2[C@H]2C[C@@H]3OP(=O)(O)/C=C/[C@H]4O[C@@H](n5cnc6c(N)ncnc65)[C@H](F)[C@@H]4OP(=O)(O)OC[C@H]3O2)c(=O)[nH]1", "Stimulator of interferon genes protein (Homo sapiens, UniProt Q86WV6)", "pEC50", 6.92),
    ("Nc1nc2c(ncn2[C@@H]2O[C@@H]3/C=C/P(=O)(O)O[C@H]4[C@@H](F)[C@H](n5cnc6c(N)ncnc65)O[C@@H]4COP(=O)(O)O[C@H]3[C@H]2F)c(=O)[nH]1", "Stimulator of interferon genes protein (Homo sapiens, UniProt Q86WV6)", "pEC50", 7.70),
    ("Nc1nc2c(ncn2[C@@H]2O[C@@H]3COP(=O)(O)O[C@H]4C[C@H](n5cnc6c(N)ncnc65)O[C@@H]4/C=C/P(=O)(O)O[C@H]3[C@H]2F)c(=O)[nH]1", "Stimulator of interferon genes protein (Homo sapiens, UniProt Q86WV6)", "pEC50", 6.15),
]
